Hey, just so you know, these numbers are from patent US20230303681A1.

# tested system: T1, human TMEM106B (human, UniProt Q9NUM4 2-274)
# T1 construct: Full-length, on transiently transfected HEK293 cells, or natively expressed on HeLa, U251 and A549 cells; also called huTMEM106B; huTMEM
# experiment: FACS HEK+huTMEM, 10 ug/ml;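 further: purified mouse IgG antibodies at 10 µg/ml bound to HEK293 cells transiently expressing human TMEM106B, measured by flow cytometry as median fluorescence intensity of propidium iodide negative live cells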
measurement type: MFI

binder	measurement type	value observed
anti-TMEM106B antibody TM-8 (antibody, V domains shown, mouse IgG from hybridoma) VH: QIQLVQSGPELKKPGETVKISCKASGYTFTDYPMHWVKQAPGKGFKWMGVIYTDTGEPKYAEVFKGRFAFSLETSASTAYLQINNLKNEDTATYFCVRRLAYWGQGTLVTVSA VL: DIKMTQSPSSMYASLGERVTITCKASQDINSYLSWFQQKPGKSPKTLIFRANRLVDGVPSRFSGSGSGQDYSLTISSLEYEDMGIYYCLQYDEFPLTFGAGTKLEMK	MFI	465
anti-TMEM106B antibody TM-31 (antibody, V domains shown, mouse IgG from hybridoma) VH: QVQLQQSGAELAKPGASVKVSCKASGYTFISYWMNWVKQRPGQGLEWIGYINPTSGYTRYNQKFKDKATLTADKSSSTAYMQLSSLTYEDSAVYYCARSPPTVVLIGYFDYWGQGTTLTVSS VL: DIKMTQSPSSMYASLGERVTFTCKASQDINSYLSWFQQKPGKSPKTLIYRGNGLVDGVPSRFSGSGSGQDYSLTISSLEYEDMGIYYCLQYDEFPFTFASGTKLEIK	MFI	6060
anti-TMEM106B antibody TM-12 (antibody, V domains shown) VH: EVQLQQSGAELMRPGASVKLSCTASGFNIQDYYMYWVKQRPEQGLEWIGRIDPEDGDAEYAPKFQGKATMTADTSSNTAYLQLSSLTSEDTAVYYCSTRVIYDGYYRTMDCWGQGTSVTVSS VL: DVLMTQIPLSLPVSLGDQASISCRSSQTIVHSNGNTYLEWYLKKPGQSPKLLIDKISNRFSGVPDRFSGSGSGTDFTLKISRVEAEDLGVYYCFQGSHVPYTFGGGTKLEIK	MFI	75300
